assay: qHTS assay for small molecule antagonists of peroxisome proliferator-activated receptor delta signaling (AID 588535); conditions: HEK293T PPARd-UAS-bla, beta-lactamase FRET ratio, 18 h; 460 nm channel;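 note: cells co-treated with a PPAR-delta agonist as stimulator during compound exposure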
Records with an inconclusive call do not appear.
Listed next: entries and their corresponding max response.
Number in %, nothing else.

Previously resolved entries follow.
{"COMPOUND": "Clc1nc(Cl)c(Cl)c(Cl)c1Cl", "max response (%)": 31.1}
{"COMPOUND": "CC1(C)C(C=C(Cl)Cl)[C@H]1C(=O)OCc1cccc(Oc2ccccc2)c1 (stereo partly drawn)", "max response (%)": 35.5}

Now for a further compound.
# max response (compound: O=[N+]([O-])C(CO)(CO)CO ) is 26.9
